test target: K61Q PncC (Escherichia coli, UniProt P0A6G3, K61Q)
Construct: made in house; host or cells: E. coli BL21(DE3)
Sequence (P0A6G3 whole entry K61Q): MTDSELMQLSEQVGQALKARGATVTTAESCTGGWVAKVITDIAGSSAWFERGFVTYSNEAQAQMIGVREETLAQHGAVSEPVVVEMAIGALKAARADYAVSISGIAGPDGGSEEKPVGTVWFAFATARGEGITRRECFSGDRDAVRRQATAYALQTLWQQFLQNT
Assay type: binding, E. coli
condition description: nucleotide 48 µM
Under this convention, rule met denotes K61Q PncC fluorescence quenching (%) vs buffer strictly below 3% and rule not met denotes K61Q PncC fluorescence quenching (%) vs buffer at or above 3%.

Quick check: K61Q PncC fluorescence quenching (%) vs buffer of Nc1ncnc2c1ncn2[C@@H]1O[C@H](COP(=O)(O)OP(=O)([O-])OC[C@H]2O[C@@H]([n+]3cccc(C(=O)O)c3)[C@H](O)[C@@H]2O)[C@@H](O)[C@H]1O [NaAD, nicotinic acid adenine dinucleotide] under 3%?
rule not met

----------
test target: K61Q PncC (Escherichia coli, UniProt P0A6G3, K61Q)
Construct: made in house; host or cells: E. coli BL21(DE3)
Type: binding, E. coli
condition description: nucleotide 24 µM
Outcome label depends on K61Q PncC fluorescence quenching (%) vs buffer relative to 4%: at/above gives label 1, below gives label 0.

1) NC(=O)c1ccc[n+]([C@@H]2O[C@H](COP(=O)(O)OP(=O)([O-])OC[C@H]3O[C@@H](n4cnc5c(N)ncnc54)[C@H](OP(=O)(O)O)[C@@H]3O)[C@@H](O)[C@H]2O)c1; label 0

Determine whether this molecule has K61Q PncC fluorescence quenching (%) vs buffer no lower than 4%: NC(=O)c1ccc[n+]([C@@H]2O[C@H](COP(=O)([O-])OP(=O)(O)OC[C@H]3O[C@@H](n4cnc5c(N)ncnc54)[C@H](O)[C@@H]3O)[C@@H](O)[C@H]2O)c1 [NAD, nicotinamide adenine dinucleotide]
label 0

Determine whether this molecule has K61Q PncC fluorescence quenching (%) vs buffer no lower than 4%: NC(=O)c1ccc[n+]([C@@H]2O[C@H](COP(=O)([O-])O)[C@@H](O)[C@H]2O)c1 [NMN, nicotinamide mononucleotide]
label 1

Hi, just wondering whether O=C(O)c1cccnc1 shows K61Q PncC fluorescence quenching (%) vs buffer of 4% or higher.
label 0

Is it the case that O=C(O)c1ccc[n+]([C@@H]2O[C@H](COP(=O)([O-])O)[C@@H](O)[C@H]2O)c1 [NaMN, nicotinic acid mononucleotide] has K61Q PncC fluorescence quenching (%) vs buffer reaching or exceeding 4%?
label 1

Is reported K61Q PncC fluorescence quenching (%) vs buffer greater than or equal to 4% here: NC(=O)c1cccnc1 [Nam, nicotinamide]
label 0

Is K61Q PncC fluorescence quenching (%) vs buffer for NC(=O)c1ccc[n+]([C@@H]2O[C@H](CO)[C@@H](O)[C@H]2O)c1 [NR, nicotinamide riboside] at or above 4%?
label 0

API: above_or_equal(metric=K61Q PncC fluorescence quenching (%) vs buffer, cutoff=4%) for item Nc1ncnc2c1ncn2[C@@H]1O[C@H](COP(=O)(O)OP(=O)([O-])OC[C@H]2O[C@@H]([n+]3cccc(C(=O)O)c3)[C@H](O)[C@@H]2O)[C@@H](O)[C@H]1O [NaAD, nicotinic acid adenine dinucleotide]
label 1

----------
Attribute: S29A PncC fluorescence quenching (%) vs buffer
test target: S29A PncC (Escherichia coli, UniProt P0A6G3, S29A)
Construct: made in house; host or cells: E. coli BL21(DE3)
Sequence (P0A6G3 whole entry S29A): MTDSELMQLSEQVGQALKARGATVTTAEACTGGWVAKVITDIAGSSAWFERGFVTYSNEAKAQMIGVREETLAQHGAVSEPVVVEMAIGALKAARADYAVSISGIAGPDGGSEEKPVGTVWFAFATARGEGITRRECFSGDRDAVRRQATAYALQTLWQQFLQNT
Format: binding, E. coli
condition description: nucleotide 0.75 µM
Text: Experimental data were processed using the OriginPro 8.0 (OriginLab Corporation, Northampton, MA, USA). A non-linear curve analysis (Hill1 plot) was used for plotting the F0/F values in function of the metabolite concentration, to obtain the Kd value.
API: value field is a number in %; no unit string.

Known results for compounds:
1) Nc1ncnc2c1ncn2[C@@H]1O[C@H](COP(=O)(O)OP(=O)([O-])OC[C@H]2O[C@@H]([n+]3cccc(C(=O)O)c3)[C@H](O)[C@@H]2O)[C@@H](O)[C@H]1O [NaAD, nicotinic acid adenine dinucleotide]; 0
2) NC(=O)c1ccc[n+]([C@@H]2O[C@H](COP(=O)([O-])O)[C@@H](O)[C@H]2O)c1 [NMN, nicotinamide mononucleotide]; 2.58

Next:
Provide only the value of recorded S29A PncC fluorescence quenching (%) vs buffer for NC(=O)c1ccc[n+]([C@@H]2O[C@H](CO)[C@@H](O)[C@H]2O)c1 [NR, nicotinamide riboside]
0.80

----------
The reader will find reported S29A PncC fluorescence quenching (%) vs buffer values listed item by item below.
test target: S29A PncC (Escherichia coli, UniProt P0A6G3, S29A)
Construct: made in house; host or cells: E. coli BL21(DE3)
Type: binding, E. coli
condition description: nucleotide 6 µM
Respond numerically; units are % and should not be typed.

1. O=C(O)c1ccc[n+]([C@@H]2O[C@H](COP(=O)([O-])O)[C@@H](O)[C@H]2O)c1 [NaMN, nicotinic acid mononucleotide]; 30.87

Query S29A PncC fluorescence quenching (%) vs buffer for NC(=O)c1ccc[n+]([C@@H]2O[C@H](COP(=O)(O)OP(=O)([O-])OC[C@H]3O[C@@H](n4cnc5c(N)ncnc54)[C@H](OP(=O)(O)O)[C@@H]3O)[C@@H](O)[C@H]2O)c1 [NADP]
2.87

Please report the measured S29A PncC fluorescence quenching (%) vs buffer for NC(=O)c1ccc[n+]([C@@H]2O[C@H](CO)[C@@H](O)[C@H]2O)c1 [NR, nicotinamide riboside]
1.98

----------
Overview of reported K61Q PncC fluorescence quenching (%) vs buffer across a group of compounds:
test target: K61Q PncC (Escherichia coli, UniProt P0A6G3, K61Q)
Construct: made in house; host or cells: E. coli BL21(DE3)
Format: binding, E. coli
condition description: nucleotide 12 µM
Please report the result as a number followed by the unit.

Please review the entries below; each comes with its answer.
1) NC(=O)c1ccc[n+]([C@@H]2O[C@H](COP(=O)([O-])OP(=O)(O)OC[C@H]3O[C@@H](n4cnc5c(N)ncnc54)[C@H](O)[C@@H]3O)[C@@H](O)[C@H]2O)c1 [NAD, nicotinamide adenine dinucleotide]; 0.65%
2) NC(=O)c1ccc[n+]([C@@H]2O[C@H](COP(=O)(O)OP(=O)([O-])OC[C@H]3O[C@@H](n4cnc5c(N)ncnc54)[C@H](OP(=O)(O)O)[C@@H]3O)[C@@H](O)[C@H]2O)c1 [NADP]; 1.20%
3) NC(=O)c1ccc[n+]([C@@H]2O[C@H](CO)[C@@H](O)[C@H]2O)c1 [NR, nicotinamide riboside]; 2.7%
4) NC(=O)c1cccnc1 [Nam, nicotinamide]; 1.15%
5) O=C(O)c1cccnc1 [Na, nicotinic acid]; 3.26%
6) NC(=O)c1ccc[n+]([C@@H]2O[C@H](COP(=O)([O-])O)[C@@H](O)[C@H]2O)c1 [NMN, nicotinamide mononucleotide]; 12.12%
7) Nc1ncnc2c1ncn2[C@@H]1O[C@H](COP(=O)(O)OP(=O)([O-])OC[C@H]2O[C@@H]([n+]3cccc(C(=O)O)c3)[C@H](O)[C@@H]2O)[C@@H](O)[C@H]1O [NaAD, nicotinic acid adenine dinucleotide]; 3.72%

Next, consider the following compound.
System K61Q PncC (Escherichia coli, UniProt P0A6G3, K61Q). Read-out K61Q PncC fluorescence quenching (%) vs buffer. Item O=C(O)c1ccc[n+]([C@@H]2O[C@H](COP(=O)([O-])O)[C@@H](O)[C@H]2O)c1 [NaMN, nicotinic acid mononucleotide] . Report value.
4.14%

----------
# reported S29A PncC fluorescence quenching (%) vs buffer; entries follow
test target: S29A PncC (Escherichia coli, UniProt P0A6G3, S29A)
Construct: made in house; host or cells: E. coli BL21(DE3)
Type: binding, E. coli
condition description: nucleotide 1.5 µM
Express it in %; write the number only.

1. NC(=O)c1cccnc1 [Nam, nicotinamide]; 1.49
2. O=C(O)c1ccc[n+]([C@@H]2O[C@H](COP(=O)([O-])O)[C@@H](O)[C@H]2O)c1 [NaMN, nicotinic acid mononucleotide]; 20.83

Tell me measured S29A PncC fluorescence quenching (%) vs buffer for Nc1ncnc2c1ncn2[C@@H]1O[C@H](COP(=O)(O)OP(=O)([O-])OC[C@H]2O[C@@H]([n+]3cccc(C(=O)O)c3)[C@H](O)[C@@H]2O)[C@@H](O)[C@H]1O [NaAD, nicotinic acid adenine dinucleotide] please.
0

Look up and report measured S29A PncC fluorescence quenching (%) vs buffer for this entry: NC(=O)c1ccc[n+]([C@@H]2O[C@H](COP(=O)([O-])OP(=O)(O)OC[C@H]3O[C@@H](n4cnc5c(N)ncnc54)[C@H](O)[C@@H]3O)[C@@H](O)[C@H]2O)c1 [NAD, nicotinamide adenine dinucleotide]
0

Name the recorded S29A PncC fluorescence quenching (%) vs buffer of the molecule listed here: NC(=O)c1ccc[n+]([C@@H]2O[C@H](CO)[C@@H](O)[C@H]2O)c1 [NR, nicotinamide riboside]
0.96

Answer with the recorded S29A PncC fluorescence quenching (%) vs buffer of NC(=O)c1ccc[n+]([C@@H]2O[C@H](COP(=O)(O)OP(=O)([O-])OC[C@H]3O[C@@H](n4cnc5c(N)ncnc54)[C@H](OP(=O)(O)O)[C@@H]3O)[C@@H](O)[C@H]2O)c1 only.
1.60

Give me measured S29A PncC fluorescence quenching (%) vs buffer, please, for this molecule: O=C(O)c1cccnc1
0
